- test_system: Torsin-1A-interacting protein 2 (Homo sapiens) (UniProt Q8NFQ8)
- Sequence (Q8NFQ8 whole entry, looked up): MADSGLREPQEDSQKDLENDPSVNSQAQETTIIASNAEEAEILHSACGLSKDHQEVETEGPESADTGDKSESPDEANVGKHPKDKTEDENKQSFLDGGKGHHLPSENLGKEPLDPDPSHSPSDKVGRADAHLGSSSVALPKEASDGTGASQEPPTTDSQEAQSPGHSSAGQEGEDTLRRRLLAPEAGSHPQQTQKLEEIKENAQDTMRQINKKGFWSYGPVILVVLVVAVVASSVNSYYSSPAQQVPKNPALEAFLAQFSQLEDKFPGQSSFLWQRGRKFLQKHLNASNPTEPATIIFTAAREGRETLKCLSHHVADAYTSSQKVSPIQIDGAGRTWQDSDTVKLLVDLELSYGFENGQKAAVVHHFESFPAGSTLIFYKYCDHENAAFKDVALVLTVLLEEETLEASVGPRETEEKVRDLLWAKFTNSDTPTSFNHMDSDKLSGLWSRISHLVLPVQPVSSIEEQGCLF
- test_method_notes: LULL1 binders on small-molecule microarray, primary screen, cell lysate, human LULL1 lysate, 635/667 nm fluorescence (AID 1092);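 also: probe is lysate of COS7 cells overexpressing human LULL1; score merges per-feature 667 nm fluorescence with signal-to-noise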
- experimental_parameters: hLULL1 lysate binding, 635 nm fluorescence, higher = more signal
measurement_label: composite z-score
Write the value as a bare number.

Use the examples below as a reference point.
CN(C)CCCC[C@@H]1NC(=O)[C@H]2C[C@@H](C(=O)NCCCCCCN)[C@@H](c3ccc(O)cc3)N2C1=O ... 3.08
COC(=O)C(CC#Cc1ccc2c(c1)[C@]1(C(=O)N2)[C@H](C(=O)Nc2nc3ccccc3s2)[C@H]2C(=O)O[C@H](c3ccccc3)[C@H](c3ccccc3)N2[C@@H]1c1ccccc1OCCO)C(=O)OC ... 2.69

Record "COC(=O)[C@@]1(Cc2ccc(OC)cc2)[C@H]2c3cc(C(=O)N(C)C)n(CCc4ccccn4)c3C[C@H]2CN1C(=O)c1ccccc1" : what is its composite z-score with Torsin-1A-interacting protein 2 (Homo sapiens) (UniProt Q8NFQ8)? 2.5

* * *

Recorded measurements of z-score, one per entry
- test_method_notes: basal MM1S mitochondrial membrane potential changes, profiling panel, cell-based, JC-1 fluorescence, 24 h, 100 nL compound (AID 1170); also: test concentration not given here
- experimental_parameters: higher = more signal
Write the value as a bare number.

COC(=O)[C@H](Cc1ccccc1)N[C@@H](/C=C/C1CC1)[C@H](O)Cc1ccccc1 ... -0.594

I would be grateful if you could share the reported z-score for "COC(=O)[C@@]1(Cc2ccc(F)cc2)[C@H]2c3cc(C(=O)N(C)C)n(Cc4cc(F)c(F)c(F)c4)c3C[C@H]2CN1C(=O)c1ccccc1" . -1.75

I would be grateful if you could share the reported z-score for "NC(=O)NCC#Cc1ccc2c(c1)[C@]1(C(=O)N2)[C@H](C(N)=O)[C@H]2C(=O)O[C@H](c3ccccc3)[C@H](c3ccccc3)N2[C@@H]1c1ccc(O)cc1" . -0.094

I would be grateful if you could share the reported z-score for "NCCCCCCNC(=O)[C@@H]1C[C@@H]2C(=O)NCC(=O)N2[C@@H]1c1ccc(O)cc1" . -0.365

I would be grateful if you could share the reported z-score for "[N-]=[N+]=NCc1ccccc1C[C@]1(C(N)=O)COC(c2ccc(OCCCO)cc2)=N1" . 1.07

I would be grateful if you could share the reported z-score for "COc1ccccc1CN1C(=O)c2ccccc2[C@@]2(Cc3ccccc3N(CC(C)C)C2=O)[C@@H]1c1ccc(CO)cc1" . -0.0409

* * *

Recorded measurements of composite z-score, one per entry
- Tested on: Lefty1
- test_method_notes: Lefty1 binders on small-molecule microarrays, primary screen, biochemical, small-molecule microarray, 635/667 nm fluorescence (AID 1139)
- experimental_parameters: small-molecule microarray binding, fluorescence 635/667; higher = more signal
Write the value as a bare number.

COc1cc2c(cc1O)C(C1CC1)N(Cc1sc3ccccc3c1Cl)CC2 (configuration not stated) ... -0.619

I would be grateful if you could share the reported composite z-score for "COC(=O)[C@@]1(Cc2ccc(OC)cc2)[C@H]2c3cc(C(=O)N(C)C)n(C)c3C[C@H]2CN1C(=O)c1ccccc1" . 0.146

I would be grateful if you could share the reported composite z-score for "CC(C)CNC(=O)[C@@]1(Cc2ccccc2I)c2ccccc2C(=O)N(C2CCCCC2)[C@H]1c1ccc(CO)cc1" . -0.104

I would be grateful if you could share the reported composite z-score for C=CCC(OC(C)=O)[C@@H]1[C@@H](N(Cc2ccc(-c3ccccc3)cc2)C(=O)c2ccc(-c3ccccc3)cc2)c2cc(OCCCO)ccc2N1C(=O)Cc1ccc2ccccc2c1 (some centres not stated) . 0.211

I would be grateful if you could share the reported composite z-score for "O=C1C[C@@](C(=O)NCCN2CCOCC2)(c2ccc([N+](=O)[O-])cc2)[C@@H](c2ccc(CO)cc2)N1CC12CC3CC(CC(C3)C1)C2" . 0.646

I would be grateful if you could share the reported composite z-score for CN1C(=O)C2C=CC(C(O)c3ccco3)N(Nc3ccccc3)C2C1=O (configuration not stated) . 0.332

I would be grateful if you could share the reported composite z-score for "COCCOC(=O)N1C(=O)[C@@]2(c3cc(C#CCC(C(=O)OC)C(=O)OC)ccc31)[C@H](C(=O)Nc1nc3ccccc3s1)[C@H]1C(=O)O[C@H](c3ccccc3)[C@H](c3ccccc3)N1[C@@H]2c1ccccc1OCCO" . 0.275
